target: DNA (cytosine-5)-methyltransferase 1 (Homo sapiens); experiment: inhibition of DNA methyltransferase DNMT1 – biochemical, molecular beacon, fluorescence, HinP1I cleavage, uHTS, primary screen (AID 588458); settings: at 10 µM
The whole screen tested about 360,000 compounds, of which about 3,000 (0.83%) were called active. Cut-off read from the data, not from the text of the source: active = inhibition above about 50%; inactive = the rest. Many of the other results were omitted from the sample, so actives are more common in it than they were.
Outcomes: label 1 for active, label 0 for inactive

compound: COc1ccccc1OC(C)C(=O)Nc1ccc(S(=O)(=O)Nc2nccs2)cc1 (centres undefined)
assayedSystem: DNA (cytosine-5)-methyltransferase 1 (Homo sapiens)
className: label 0

compound: CC1(C)CC(=O)C(C=NCCC2=CCCCC2)=C(O)C1
assayedSystem: DNA (cytosine-5)-methyltransferase 1 (Homo sapiens)
className: label 0

compound: O=C(O)C(c1ccccc1)N1C(=O)/C(=C\c2ccc(-c3cccc(Cl)c3)o2)SC1=S (centres undefined)
assayedSystem: DNA (cytosine-5)-methyltransferase 1 (Homo sapiens)
className: label 1

compound: CC(C)(C)n1nnc(CCc2nnn(C(C)(C)C)n2)n1
assayedSystem: DNA (cytosine-5)-methyltransferase 1 (Homo sapiens)
className: label 0

Data origin: PubChem BioAssay AID588458
